Target: OXA-23 (Acinetobacter baumannii, UniProt Q9L4P2)
Test: Kiapp determination with nitrocefin (method of Waley)
Settings: recombinant His-tagged enzyme; 10 min incubation at 37°C; 50 μM NCF
OBSERVED_PROPERTY: Ki (µM)
Just the number please, in µM, no unit attached.

Which value of Ki has been reported for O=C(O)C[C@@H]1CC[C@H](NC(=O)Cc2cccs2)B(O)O1 in the records? 66

----------
Target: CTX-M-15 (Escherichia coli, UniProt Q9EXV5)
OBSERVED_PROPERTY: pKd
Please report pKd as the negative decimal logarithm of the molar concentration, giving only the number.

Which value of pKd has been reported for O=C(O)C[C@@H]1CC[C@H](NC(=O)Cc2cccs2)B(O)O1 in the records? 7.40

----------
Molecular target: KPC-3 (Klebsiella pneumoniae, UniProt Q9F663, H272Y)
Sequence (Q9F663 25-293 H272Y): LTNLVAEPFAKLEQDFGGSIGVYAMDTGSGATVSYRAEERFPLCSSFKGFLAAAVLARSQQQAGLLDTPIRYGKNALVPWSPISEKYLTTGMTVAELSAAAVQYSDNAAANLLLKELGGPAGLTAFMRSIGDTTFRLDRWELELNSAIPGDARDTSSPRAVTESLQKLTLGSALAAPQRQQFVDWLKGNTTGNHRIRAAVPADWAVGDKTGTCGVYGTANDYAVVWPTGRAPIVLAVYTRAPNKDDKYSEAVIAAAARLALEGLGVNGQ
Assay: koff of enzyme activity recovery, jump dilution method
OBSERVED_PROPERTY: Kd (nM)
Just the number please, in nM, no unit attached.

Which value of Kd has been reported for O=C(O)C[C@@H]1CC[C@H](NC(=O)Cc2cccs2)B(O)O1 [vaborbactam] in the records? 4.4

----------
Target: SME-2 (Serratia marcescens, UniProt P52682, V207Q)
Experiment: Kiapp determination with nitrocefin (method of Waley)
Details: recombinant His-tagged enzyme; 10 min incubation at 37°C; 50 μM NCF
OBSERVED_PROPERTY: pKi
Please report pKi as the negative decimal logarithm of the molar concentration, giving only the number.

Which value of pKi has been reported for O=C(O)C[C@@H]1CC[C@H](NC(=O)Cc2cccs2)B(O)O1 [vaborbactam] in the records? 7.38
